- Tested on: MAPKAPK2
- assay-setup: concentration: 1 μM, replicates: in singlicate; n = 1;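 also: KINOMEscan kinase panel screen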
Catalogue of %Inh values
metric: %Inh

>>> value_measured("CC(C)(C)OC(=O)NC1CCCN(c2cc(-c3ccc4c(N)n[nH]c4c3)nc(N)n2)C1 (stereo not shown)")
"0%"
>>> value_measured("OCCOCCn1ccc2ncnc(Nc3ccc(Oc4cccc(Cl)c4)c(Cl)c3)c21")
"0%"
>>> value_measured("FC(F)(F)c1ccc(-c2cc(-c3c[nH]nc3-c3ccccn3)ccn2)cc1")
"28%"
>>> value_measured("Cn1ccc2ncnc(Nc3ccc(Oc4cccc(Cl)c4)c(Cl)c3)c21")
"0%"
>>> value_measured("Cc1ccc(O)cc1Nc1cc(C(F)(F)F)nc2ccc(-c3ccncc3)cc12")
"0%"
>>> value_measured("CC(=O)Nc1n[nH]c2ncc(-c3ccccc3)cc12")
"5%"
>>> value_measured("Cn1cc(-c2ccc3c(c2)CCN3C(=O)Cc2cccc(C(F)(F)F)c2)c2c(N)ncnc21")
"100%"

* * *

- System: WNK2
- assay-setup: concentration: 1 μM, replicates: in singlicate; n = 1
metric: %Inh (%)

>>> value_measured("COC(=O)c1c(-c2ccccc2)c2cc(Cl)ccc2c(=O)n1Cc1ccc(S(C)(=O)=O)cc1")
4
>>> value_measured("Cl.Cn1ccc(-c2cccc(Nc3ccnc4cc(-c5nccs5)ccc34)c2)n1")
18
>>> value_measured("Cl.O=S(=O)(c1cccc(F)c1)c1ccc(Nc2ncnc3cc(Br)sc23)cc1Cl")
9

* * *

Catalogue of %Inh values
- Test system: PAK4
- assay-setup: concentration: 1 μM, replicates: in singlicate; n = 1
metric: %Inh (%)

>>> value_measured("Cl.c1ccc(Cn2ccc3cc(Nc4ncnc5ccccc45)ccc32)cc1")
9
>>> value_measured("CNc1nccc(-c2c(-c3ccc(F)cc3)ncn2CCCN2CCOCC2)n1")
0
>>> value_measured("CNc1nccc(-c2c(-c3ccc(F)cc3)ncn2C2CCN(C)CC2)n1")
0
>>> value_measured("Fc1cccc(COc2ccc(Nc3ncnc4sc(-c5ccc[nH]5)cc34)cc2Cl)c1")
6
>>> value_measured("Nc1nc(-c2cccnc2)c(-c2ccnc3ccccc23)s1")
0
>>> value_measured("c1ccc(-c2ccc3c(-c4ccnc(Nc5ccc6c(c5)OCCO6)n4)cnn3n2)cc1")
0
>>> value_measured("Fc1cccc(COc2ccc(Nc3ncnc4cc[nH]c34)cc2Cl)c1")
26
>>> value_measured("NC(=O)c1sc(-n2cnc3ccccc32)cc1OCc1ccccc1F")
0
>>> value_measured("Cn1ccc2ncnc(Nc3ccc(Oc4cccc(Cl)c4)c(Cl)c3)c21")
19
>>> value_measured("Cc1ccc(O)cc1Nc1cc(C(F)(F)F)nc2ccc(-c3ccncc3)cc12")
21
>>> value_measured("Clc1ccc(-c2cc(-c3c[nH]nc3-c3ccccn3)ccn2)cc1")
39
>>> value_measured("Nc1n[nH]c2nnc(-c3ccccc3)cc12")
0

* * *

Catalogue of %Inh values
- System: RSK1(Kin.Dom.1-N-terminal)
- Construct: gene RPS6KA1
- assay-setup: concentration: 1 μM, replicates: in singlicate; n = 1
metric: %Inh (%)

>>> value_measured("CCCc1ccc(S(=O)(=O)NC2CCN(c3ccnc(Nc4ccc(OC)cc4)n3)C2)cc1 (stereo not drawn)")
0
>>> value_measured("Fc1cccc(COc2ccc(Nc3ncnc4nn5ccccc5c34)cc2Cl)c1")
4
>>> value_measured("CC(=O)Nc1n[nH]c2ncc(-c3ccccc3)cc12")
1
>>> value_measured("Nc1nc(-c2ccccn2)c(-c2ccnc3ccccc23)s1")
5
>>> value_measured("Cc1ccc(NC(=O)c2cccc(C#N)c2)cc1-c1ccc(C(=O)Nc2ccncc2)cc1")
24
>>> value_measured("Clc1ccc(-c2cc(-c3c[nH]nc3-c3ccccn3)ccn2)cc1")
6
>>> value_measured("c1ccc(-c2ccc3c(-c4ccnc(Nc5ccc6c(c5)OCCO6)n4)cnn3n2)cc1")
0
>>> value_measured("Cc1ccc(C)c(NC(=O)NCCNc2ccnc(Nc3ccc(F)cc3)n2)c1")
0
>>> value_measured("COc1ccc(-c2oc3ncnc(N)c3c2-c2ccc(OC)cc2)cc1")
29
>>> value_measured("Fc1ccc(Nc2nccc(-c3c(-c4ccc(Cl)cc4)nn4ncccc34)n2)cc1F")
27
>>> value_measured("O=C(Nc1n[nH]c2nc(-c3ccco3)c(Br)cc12)c1ccc(CN2CCCC2)cc1.O=C(O)[C@H](O)[C@@H](O)C(=O)O")
5
>>> value_measured("Nc1nc(-c2ccc3c(N)n[nH]c3c2)cc(N2CCCCC2)n1")
0
>>> value_measured("Fc1cccc(COc2ccc(Nc3ncnc4sc(-c5ccc[nH]5)cc34)cc2Cl)c1")
25
>>> value_measured("Nc1nc(-c2ccc3c(N)n[nH]c3c2)cc(N2CCC[C@@H](C(=O)Nc3ccccc3)C2)n1.O=C(O)C(F)(F)F.O=C(O)C(F)(F)F")
20
>>> value_measured("CN1c2ccc(-c3ccc(C(=O)NCCO)cc3)cc2-c2[nH]ncc2S1(=O)=O")
0
>>> value_measured("FC(F)(F)c1ccc(-c2cc(-c3c[nH]nc3-c3ccccn3)ccn2)cc1")
20
>>> value_measured("NC(=O)c1sc(-n2cnc3ccccc32)cc1OCc1ccccc1F")
0
>>> value_measured("Cl.c1ccc(Cn2ccc3cc(Nc4ncnc5ccccc45)ccc32)cc1")
41
